# procedureText: Pharmacokinetics in male Sprague Dawley rats
# Assay type: in vivo, rat
# experimentalSetup: male, Sprague-Dawley, rat, plasma, oral, 10 mg/kg
quantity: bioavailability (%)
The answer is to be given in %; state only the numeric part.

What value of bioavailability has been reported for the following compound? Cc1[nH]c(C=C2C(=O)Nc3ccccc32)c(C)c1CCC(=O)N1CCNCC1.O=C(O)C(F)(F)F [Example 1]
50.6
